src = patent US20250051435A1

Target: T1, feline IL-5 (Kingfisher Biotech; RP1152F) (feline, UniProt O77515 20-134)
T1 construct: Bought recombinant protein; also called fIL-5; fIL5
T1 sequence (looked up): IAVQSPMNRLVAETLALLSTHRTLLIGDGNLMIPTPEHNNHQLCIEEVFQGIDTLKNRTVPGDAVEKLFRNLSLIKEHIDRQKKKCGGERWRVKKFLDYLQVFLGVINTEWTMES
Test: ELISA, Fab culture supernatant on plate-coated feline IL-5, anti-feline Fab'2-HRP detection
Field: label. Allowed values: 1 (fIL5 Fab (ELISA absorbance) < 0.7 absorbance) or 0 (fIL5 Fab (ELISA absorbance) >= 0.7 absorbance).

- LxH3-F4 Fab (affinity matured MtxB) (Fab, V domains shown, Fab from the Stage B library on MtxB; the entries named are the parent, the changed regions are told under detail) VH: DVQLVESGGDLVKPGGSLRLTCVGSGFTFSNYAMSWVRQAPGEGLQWVATIGSGGHYTYHPDSVKGRFTISRDNAKNTLYLQMNSLQTEDTASYYCTRETDGYGPMLDWGQGTLVTVSS VL: DIVMTQTPLSLSVTPGEPASISCRASQSISDYLYWYLQKPGQSPRLLFNYGSVLASGVPDRFSGSGSGTDFTLRISRVEADDVGVYYCQQGYLFPYTFGPGTKLEIKR: 0
- LxH3-F3 Fab (affinity matured MtxB) (Fab, V domains shown, Fab from the Stage B library on MtxB; the entries named are the parent, the changed regions are told under detail) VH: DVQLVESGGDLVKPGGSLRLTCVGSGFTFSNYAMSWVRQAPGEGLQWVATIGSGGHYTYHPDSVKGRFTISRDNAKNTLYLQMNSLQTEDTASYYCTRETDGYGPLDLWGQGTLVTVSS VL: DIVMTQTPLSLSVTPGEPASISCRASQSISDYLYWYLQKPGQSPRLLFNSVSPTRSGVPDRFSGSGSGTDFTLRISRVEADDVGVYYCQQGVVFPYTFGPGTKLEIK: 0
- LxH3-F5 Fab (affinity matured MtxB) (Fab, V domains shown, Fab from the Stage B library on MtxB; the entries named are the parent, the changed regions are told under detail) VH: DVQLVESGGDLVKPGGSLRLTCVGSGFTFSNYAMSWVRQAPGEGLQWVATIGSGGHYTYHPDSVKGRFTISRDNAKNTLYLQMNSLQTEDTASYYCTRETDGYGPLDLWGQGTLVTVSS VL: DIVMTQTPLSLSVTPGEPASISCRASQSISDYLYWYLQKPGQSPRLIINPMSGQLSGVPDRFSGSGSGTDFTLRISRVEADDVGVYYCQQGLLFPYTFGPGTKLEIKR: 0
- LxH3-E2 Fab (affinity matured MtxB) (Fab, V domains shown, Fab from the Stage B library on MtxB; the entries named are the parent, the changed regions are told under detail) VH: DVQLVESGGDLVKPGGSLRLTCVGSGFTFSNYAMSWVRQAPGEGLQWVATIGSGGHYTYHPDSVKGRFTISRDNAKNTLYLQMNSLQTEDTASYYCTRETDGYGPILDWGQGTLVTVSS VL: DIVMTQTPLSLSVTPGEPASISCRASQSISDYLYWYLQKPGQSPRRIFNHLSPSSSGVPDRFSGSGSGTDFTLRISRVEADDVGVYYCQQGSVFPYTFGPGTKLEIKR: 0
- MtxB Fab (Fab, V domains shown, Fab made in E. coli from the phagemid: heavy chain variable domain, CH1 and partial hinge; light chain of MtxB; also called Matrix B; original MtxB Fab) VH: DVQLVESGGDLVKPGGSLRLTCVGSGFTFSNYAMSWVRQAPGEGLQWVATIGSGGHYTYHPDSVKGRFTISRDNAKNTLYLQMNSLQTEDTASYYCTRETDGYDGMDYWGQGTLVTVSS VL: DIVMTQTPLSLSVTPGEPASISCRASQSISDYLYWYLQKPGQSPRRLIYYASQSISGVPDRFSGSGSGTDFTLRISRVEADDVGVYYCQNGHSFPYTFGPGTKLEIK: 1

Q: For this binder, is fIL5 Fab (ELISA absorbance) lower than 0.7 absorbance? LxH3-B6 Fab (affinity matured MtxB) (Fab, V domains shown, Fab from the Stage B library on MtxB; the entries named are the parent, the changed regions are told under detail) VH: DVQLVESGGDLVKPGGSLRLTCVGSGFTFSNYAMSWVRQAPGEGLQWVATIGSGGHYTYHPDSVKGRFTISRDNAKNTLYLQMNSLQTEDTASYYCTRETDGYGPILDWGQGTLVTVSS VL: DIVMTQTPLSLSVTPGEPASISCRASQSISDYLYWYLQKPGQSPRLIFNPLSVRRSGVPDRFSGSGSGTDFTLRISRVEADDVGVYYCQQGMVFPYTFGPGTKLEIKR
A: 0

Q: For this binder, is fIL5 Fab (ELISA absorbance) lower than 0.7 absorbance? LxH3-G4 Fab (affinity matured MtxB) (Fab, V domains shown, Fab from the Stage B library on MtxB; the entries named are the parent, the changed regions are told under detail) VH: DVQLVESGGDLVKPGGSLRLTCVGSGFTFSNYAMSWVRQAPGEGLQWVATIGSGGHYTYHPDSVKGRFTISRDNAKNTLYLQMNSLQTEDTASYYCTRETDGYGPMDLWGQGTLVTVSS VL: DIVMTQTPLSLSVTPGEPASISCRASQSISDYLYWYLQKPGQSPRRLIYFGSLLSSGVPDRFSGSGSGTDFTLRISRVEADDVGVYYCQQGLLFPYTFGPGTKLEIKR
A: 1

Q: For this binder, is fIL5 Fab (ELISA absorbance) lower than 0.7 absorbance? 1H3-C6 Fab (MtxB HCDR3 variant) (Fab, V domains shown, Fab from the MtxB HCDR3 library; the entry named is the parent, the changed CDR is told under detail) VH: DVQLVESGGDLVKPGGSLRLTCVGSGFTFSNYAMSWVRQAPGEGLQWVATIGSGGHYTYHPDSVKGRFTISRDNAKNTLYLQMNSLQTEDTASYYCTRETDGYGPMDVWGQGTLVTVSS VL: DIVMTQTPLSLSVTPGEPASISCRASQSISDYLYWYLQKPGQSPRRLIYYASQSISGVPDRFSGSGSGTDFTLRISRVEADDVGVYYCQNGHSFPYTFGPGTKLEIK
A: 1

Q: For this binder, is fIL5 Fab (ELISA absorbance) lower than 0.7 absorbance? LxH3-G2 Fab (affinity matured MtxB) (Fab, V domains shown, Fab from the Stage B library on MtxB; the entries named are the parent, the changed regions are told under detail) VH: DVQLVESGGDLVKPGGSLRLTCVGSGFTFSNYAMSWVRQAPGEGLQWVATIGSGGHYTYHPDSVKGRFTISRDNAKNTLYLQMNSLQTEDTASYYCTRETDGYGPLDLWGQGTLVTVSS VL: DIVMTQTPLSLSVTPGEPASISCRASQSISDYLYWYLQKPGQSPRLVINWGSQRASGVPDRFSGSGSGTDFTLRISRVEADDVGVYYCQQGAIFPYTFGPGTKLEIKR
A: 1
